- Tested on: Acinetobacter baumannii
- methodNotes: Antibacterial activity against Acinetobacter baumannii ATCC 17978 measured after overnight incubation in presence of polymyxin B nonapeptide by microbroth dilution method
- Format: functional
For each entry below, report its MIC value.
One number for each entry, in µg/mL.

For orientation, consider the following solved cases.
Cc1c(CNCc2ccccc2)cc(-c2ccc(Cl)cc2)n1-c1ccc(Cl)cc1 = 16
Cc1c(CNC2CCCCC2)cc(-c2ccc(Cl)cc2)n1-c1ccc(Cl)cc1 = 4
Cc1c(CNC2CCCCCC2)cc(-c2ccc(Cl)cc2)n1-c1ccc(C(C)C)cc1 = 2
Cc1c(CNC2CCCCC2)cc(-c2ccc(C(C)C)cc2)n1-c1ccc(Cl)cc1 = 2

Would you kindly look at the next entry?
Ask: Request the reported MIC associated with Cc1c(CNC2CCC(NC(=N)N)CC2)cc(-c2ccc(Cl)cc2)n1-c1ccc(Cl)cc1 (stereo not given)
Reply: 16
